- Tested on: Klebsiella pneumoniae KPC-119
- measurement description: percent growth inhibition of drug alone vs DMSO control; higher = more growth inhibition
- settings: antibiotic (0.125x MIC): none (0.1% DMSO); 7 µM
Counter-ions that a name gives are not always drawn.
observed property: percent growth inhibition of drug alone
Reply with a number, then the unit it belongs to.

- C#CCN(C)[C@H](C)Cc1ccccc1 [Selegiline hydrochloride]: -1.33%
- C[N+]1([O-])[C@@H]2C[C@@H](OC(=O)[C@H](CO)c3ccccc3)C[C@H]1[C@@H]1O[C@@H]12 (some centres undefined) [Scopolamin-N-oxide hydrobromide]: -1.08%

Which percent growth inhibition of drug alone is reported for this compound? O=C([O-])c1ccccc1-c1c2cc(Br)c(=O)cc-2oc2[c]([Hg+])c([O-])c(Br)cc12.[Na+].[Na+].[OH-] [Merbromin] 1.39%

Input C[C@]12CC[C@H](O)C[C@@H]1CC[C@@H]1[C@@H]2CC[C@]2(C)C(=O)CC[C@@H]12 [Epiandrosterone] 0.561%

----------
In this section, each of the compounds is paired with its reported percent growth inhibition of drug alone.
- Test system: Escherichia coli ATCC BAA-2469
- measurement description: percent growth inhibition of drug alone vs DMSO control; higher = more growth inhibition
- settings: antibiotic (0.125x MIC): none (0.1% DMSO); 20 µM

• NCC1(CC(=O)O)CCCCC1 [Gabapentin] = -1.41%
• O=C([O-])c1ccccc1-c1c2cc(Br)c(=O)cc-2oc2[c]([Hg+])c([O-])c(Br)cc12.[Na+].[Na+].[OH-] [Merbromin] = 38.2%
• C[C@]12CC[C@H](O)C[C@@H]1CC[C@@H]1[C@@H]2CC[C@]2(C)C(=O)CC[C@@H]12 [Epiandrosterone] = 1.48%
• O=C(CCCN1CCC2(CC1)C(=O)NCN2c1ccccc1)c1ccc(F)cc1 [Spiperone] = 2.07%

Please turn your attention to the following entry.
Give percent growth inhibition of drug alone (Escherichia coli ATCC BAA-2469) of the following compound: Oc1cc(Cl)ccc1Oc1ccc(Cl)cc1Cl [Triclosan] 107%
